Assay: Pharmacokinetics of Compound 4 in mice (IV and PO)
Format: in vivo, BALB/c nude female mice
Conditions: female, BALB/c nude, mouse, plasma, oral, 20 mg/kg, 20 mg/kg PO, 0.25 hr, mean; read-out: Plasma concentration Mean PO
measurement.type: concentration at 0.25 hr (ng/mL)
Field format: number, assumed ng/mL, no unit text.

Prompt: Looking for the measured concentration at 0.25 hr of NCCCOc1cc2ccccc2cc1C(=O)NCCCOc1cc2ccccc2cc1C(=O)Nc1ccc(Cl)cc1O , can you help?
Response: 89.7

* * *

Experiment: Pharmacokinetics of Compound 4 in mice (IV and PO)
Assay type: in vivo, BALB/c nude female mice
Conditions: female, BALB/c nude, mouse, plasma, intravenous, 2 mg/kg, 2 mg/kg IV, 24 hr, mean; read-out: Plasma concentration Mean IV
measurement.type: concentration at 24 hr
Give me the value, and tack the unit on after it.

Prompt: Looking for the measured concentration at 24 hr of NCCCOc1cc2ccccc2cc1C(=O)NCCCOc1cc2ccccc2cc1C(=O)Nc1ccc(Cl)cc1O , can you help?
Response: 15 ng/mL
